The measured values listed here are drawn from patent US20250064941A1.

Biological target: human Siglec-2/CD22 protein (Homo sapiens, UniProt P20273)
Sequence (P20273 20-847): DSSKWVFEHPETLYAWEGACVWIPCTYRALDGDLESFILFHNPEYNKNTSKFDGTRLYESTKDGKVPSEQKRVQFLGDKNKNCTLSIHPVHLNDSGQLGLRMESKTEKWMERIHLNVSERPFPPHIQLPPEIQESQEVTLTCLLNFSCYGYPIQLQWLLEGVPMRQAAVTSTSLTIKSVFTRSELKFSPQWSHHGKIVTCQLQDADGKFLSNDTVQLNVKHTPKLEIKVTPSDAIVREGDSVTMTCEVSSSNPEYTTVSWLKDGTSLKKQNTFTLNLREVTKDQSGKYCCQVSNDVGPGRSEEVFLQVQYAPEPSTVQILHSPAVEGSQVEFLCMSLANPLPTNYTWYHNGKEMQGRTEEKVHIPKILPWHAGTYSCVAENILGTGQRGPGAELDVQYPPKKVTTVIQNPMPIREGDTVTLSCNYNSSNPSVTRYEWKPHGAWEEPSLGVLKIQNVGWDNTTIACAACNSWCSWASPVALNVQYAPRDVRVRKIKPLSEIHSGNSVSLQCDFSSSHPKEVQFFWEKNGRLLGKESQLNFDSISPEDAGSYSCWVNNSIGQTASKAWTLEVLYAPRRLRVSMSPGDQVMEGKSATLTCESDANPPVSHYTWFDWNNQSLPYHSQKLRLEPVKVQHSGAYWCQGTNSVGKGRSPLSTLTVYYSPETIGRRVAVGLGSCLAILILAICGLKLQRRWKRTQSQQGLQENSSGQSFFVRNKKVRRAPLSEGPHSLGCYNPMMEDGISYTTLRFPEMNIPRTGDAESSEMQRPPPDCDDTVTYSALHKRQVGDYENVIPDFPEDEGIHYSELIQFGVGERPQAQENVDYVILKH
Test: SPR binding affinity to human CD22
Conditions: steady-state analysis
pKd: −log10 of the molar value.
VALUE KIND: pKd

O=C(Cc1ccc(Cl)cc1)NC[C@@H](O)[C@@H](O)[C@@H]1O[C@@](OCCCCCCNC(=O)c2ccccc2)(C(=O)O)C[C@H](O)[C@H]1NC(=O)CO > 6.00

Observed pKd on human Siglec-2/CD22 protein (Homo sapiens, UniProt P20273), entry "CC(=O)NCCOCCOCCOCCOCCNc1c(NCCOCCOCCO[C@]2(C(=O)O)C[C@H](O)[C@@H](NC(=O)CO)[C@H]([C@H](O)[C@H](O)CNC(=O)Cc3ccc(Cl)cc3)O2)c(=O)c1=O" , equals 5.00 to 6.00

Observed pKd on human Siglec-2/CD22 protein (Homo sapiens, UniProt P20273), entry "C#CCCOc1cccc(CO[C@]2(C(=O)O)C[C@H](O)[C@@H](NC(C)=O)[C@H]([C@H](O)[C@H](O)CNC(=O)c3cccc(Oc4ccccc4)c3)O2)c1" , equals 5.00 to 6.00

* * *

Biological target: mouse Siglec-2-Fc-Avi (CD22) (Mus musculus)
Sequence (P35329 22-708 limits assumed): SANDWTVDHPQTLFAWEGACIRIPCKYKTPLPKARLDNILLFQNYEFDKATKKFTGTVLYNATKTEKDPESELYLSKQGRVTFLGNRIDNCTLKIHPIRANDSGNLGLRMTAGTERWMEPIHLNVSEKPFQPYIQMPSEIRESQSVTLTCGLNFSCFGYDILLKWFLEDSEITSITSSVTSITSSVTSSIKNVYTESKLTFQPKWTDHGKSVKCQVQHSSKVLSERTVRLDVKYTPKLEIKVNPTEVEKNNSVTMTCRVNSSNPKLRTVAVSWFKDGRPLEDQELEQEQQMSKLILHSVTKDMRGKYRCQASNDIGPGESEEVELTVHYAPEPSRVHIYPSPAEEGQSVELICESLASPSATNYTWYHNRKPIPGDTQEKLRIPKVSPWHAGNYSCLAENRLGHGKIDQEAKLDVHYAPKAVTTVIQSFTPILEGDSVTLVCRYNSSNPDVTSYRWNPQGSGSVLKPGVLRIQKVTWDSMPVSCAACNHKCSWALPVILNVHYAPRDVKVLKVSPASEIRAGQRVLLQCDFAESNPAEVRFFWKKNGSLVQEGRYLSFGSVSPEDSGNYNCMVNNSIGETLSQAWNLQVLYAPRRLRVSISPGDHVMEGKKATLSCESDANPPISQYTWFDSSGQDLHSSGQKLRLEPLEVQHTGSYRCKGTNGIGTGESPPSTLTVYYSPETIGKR
Parameter Kd: see the listing below.

Observe how each entry below is paired with its result.
MOLECULE	REPORTED RESULT
C#CCOCCCCCCO[C@]1(C(=O)O)C[C@H](O)[C@@H](NC(=O)C(=O)NC)[C@H]([C@H](O)[C@H](O)CNC(=O)Cc2ccc(Cl)cc2)O1	1 to 10 µM
C#CCOc1cccc(-c2cn([C@]3(C(=O)O)C[C@H](O)[C@@H](NC(=O)CO)[C@H]([C@H](O)[C@H](O)CNC(=O)Cc4ccc(-c5ccc(O)cc5)cc4)O3)nn2)c1	1 to 10 µM
C#CCOC(=O)NCc1ccc(CO[C@]2(C(=O)O)C[C@H](O)[C@@H](NC(=O)CO)[C@H]([C@H](O)[C@H](O)CNC(=O)Cc3ccc(Cl)cc3)O2)cc1	< 1 µM
C#CCOCCOCCO[C@]1(C(=O)O)C[C@H](O)[C@@H](NC(=O)NC)[C@H]([C@H](O)[C@H](O)CNC(=O)Cc2ccc(-c3ccc(O)cc3)cc2)O1	1 to 10 µM

Notebook: "C#CCCCCCCS[C@]1(C(=O)O)C[C@H](O)[C@@H](NC(=O)CO)[C@H]([C@H](O)[C@H](O)CNC(=O)Cc2cccc(O)c2)O1" , Kd read as < 1 µM

Notebook: "C#CCOCCCCCCO[C@]1(C(=O)O)C[C@H](O)[C@@H](NC(=O)CO)[C@H]([C@H](O)[C@H](O)CNC(=O)Cc2ccc(Cl)cc2)O1" , Kd read as 1 to 10 µM

Notebook: "C#CCOCCCCCCO[C@]1(C(=O)O)C[C@H](O)[C@@H](NC(=O)NC2CC2)[C@H]([C@H](O)[C@H](O)CNC(=O)Cc2ccc(Cl)cc2)O1" , Kd read as 1 to 10 µM

Notebook: "CC(=O)NCCOCCOCCOCCOCCNc1c(NCCCCCCO[C@]2(C(=O)O)C[C@H](O)[C@@H](NC(C)=O)[C@H]([C@H](O)[C@H](O)CNC(=O)c3cccc(Cl)c3)O2)c(=O)c1=O" , Kd read as > 10 µM

Notebook: "C#CCOCCOCCO[C@]1(C(=O)O)C[C@H](O)[C@@H](NC(=O)CO)[C@H]([C@H](O)[C@H](O)CNC(=O)CC)O1" , Kd read as > 10 µM

Notebook: "C#CCCOc1ccc(CO[C@]2(C(=O)O)C[C@H](O)[C@@H](NC(=O)CO)[C@H]([C@H](O)[C@H](O)CNC(=O)Cc3ccccc3N3CCOCC3)O2)cc1" , Kd read as 1 to 10 µM

Notebook: "C#CCOCCCCCCO[C@]1(C(=O)O)C[C@H](O)[C@@H](NC(=O)CO)[C@H]([C@H](O)[C@H](O)CNC(=O)Cc2ccc(C(C)C)cc2)O1" , Kd read as < 1 µM

Notebook: "C#CCCOc1ccc(CO[C@]2(C(=O)O)C[C@H](O)[C@@H](NC(=O)NC)[C@H]([C@H](O)[C@H](O)CNC(=O)Cc3ccc(-c4ccc(O)cc4)cc3)O2)cc1" , Kd read as < 1 µM

Notebook: "C#CCOCCOCCO[C@]1(C(=O)O)C[C@H](O)[C@@H](NC(=O)CO)[C@H]([C@H](O)[C@H](O)CNC(=O)Cc2ccc(-c3ccc4[nH]ccc4c3)cc2)O1" , Kd read as < 1 µM

Notebook: "CCCCCCC[C@]1(C(=O)O)C[C@H](O)[C@@H](NC(=O)CO)[C@H]([C@H](O)[C@H](O)CNC(=O)Cc2ccc(Cl)cc2)O1" , Kd read as 1 to 10 µM

Notebook: "O=C(O)CCCCCCCCCCCCCCCO[C@]1(C(=O)O)C[C@H](O)[C@@H](NC(=O)CO)[C@H]([C@H](O)[C@H](O)CNC(=O)Cc2ccc(Cl)cc2)O1" , Kd read as < 1 µM

Notebook: "C#CCOCCOCCO[C@]1(C(=O)O)C[C@H](O)[C@@H](NC(=O)CO)[C@H]([C@H](O)[C@H](O)CNC(=O)Cc2cc(O)cc(Cl)c2)O1" , Kd read as 1 to 10 µM

Notebook: "C#CCOCCOCCO[C@]1(C(=O)O)C[C@H](O)[C@@H](NC(=O)CO)[C@H]([C@H](O)[C@H](O)CNC(=O)Cc2ccc(-c3cccc(C(=O)NC)c3)cc2)O1" , Kd read as 1 to 10 µM

Notebook: C#CCOCCCCCCC(O)[C@]1(C(=O)O)C[C@H](O)[C@@H](NC(=O)CO)[C@H]([C@H](O)[C@H](O)CNC(=O)Cc2ccc(Cl)cc2)O1 (stereo partly shown) , Kd read as 1 to 10 µM

Notebook: "C#CCOCCOCCO[C@]1(C(=O)O)C[C@H](O)[C@@H](NC(=O)CO)[C@H]([C@H](O)[C@H](O)CNC(=O)c2ccc(O)cc2)O1" , Kd read as > 10 µM

Notebook: "C#CCOc1ccc(CO[C@]2(C(=O)O)C[C@H](O)[C@@H](NC(=O)CO)[C@H]([C@H](O)[C@H](O)CNC(=O)Cc3ccccc3F)O2)cc1" , Kd read as 1 to 10 µM

Notebook: "C#CCCCCCCO[C@]1(C(=O)O)C[C@H](O)[C@@H](NC(=O)CO)[C@H]([C@H](O)[C@H](O)CNC(=O)Cc2ccc(Cl)cc2)O1" , Kd read as < 1 µM

Notebook: "C#CCOCCOCCO[C@]1(C(=O)O)C[C@H](O)[C@@H](NC(=O)CO)[C@H]([C@H](O)[C@H](O)CNC(=O)Cc2cccc(O)c2)O1" , Kd read as < 1 µM

* * *

Target: human Siglec-2/CD22 protein (Homo sapiens)
Assay: SPR binding affinity to human CD22
Settings: steady-state analysis
pKd: −log10 of the molar value.
Parameter pKd: see the listing below.

C#CCOCCOCCO[C@]1(C(=O)O)C[C@H](O)[C@@H](NC(=O)CO)[C@H]([C@H](O)[C@H](O)CNC(=O)c2ccccc2O)O1 < 5.00

Notebook: "C#CCOc1ccc(CO[C@]2(C(=O)O)C[C@H](O)[C@@H](NC(=O)CO)[C@H]([C@H](O)[C@H](O)CNC(=O)Cc3cccc(F)c3)O2)cc1" , pKd read as > 6.00

Notebook: "C#CCOCCCCCCO[C@]1(C(=O)O)C[C@H](O)[C@@H](NC(=O)CO)[C@H]([C@H](O)[C@H](O)CNC(=O)Cc2ccc(Cl)c(C(F)(F)F)c2)O1" , pKd read as > 6.00

Notebook: "C#CCOCCOCCO[C@]1(C(=O)O)C[C@H](O)[C@@H](NC(=O)CO)[C@H]([C@H](O)[C@H](O)CNC(=O)Cc2cccc(O)c2)O1" , pKd read as 5.00 to 6.00

Notebook: "CC(=O)NCCOCCOCCOCCOCc1cn(CCCCCCCCO[C@]2(C(=O)O)C[C@H](O)[C@@H](NC(=O)CO)[C@H]([C@H](O)[C@H](O)CNC(=O)Cc3ccc(C(F)F)cc3)O2)nn1" , pKd read as > 6.00

Notebook: "C#CCOCCCCCCO[C@]1(C(=O)O)C[C@H](O)[C@@H](NC(C)=S)[C@H]([C@H](O)[C@H](O)CNC(=O)Cc2ccc(Cl)cc2)O1" , pKd read as > 6.00
